# system: KHK (Homo sapiens (Human), UniProt P50053)
# Sequence (P50053 whole entry): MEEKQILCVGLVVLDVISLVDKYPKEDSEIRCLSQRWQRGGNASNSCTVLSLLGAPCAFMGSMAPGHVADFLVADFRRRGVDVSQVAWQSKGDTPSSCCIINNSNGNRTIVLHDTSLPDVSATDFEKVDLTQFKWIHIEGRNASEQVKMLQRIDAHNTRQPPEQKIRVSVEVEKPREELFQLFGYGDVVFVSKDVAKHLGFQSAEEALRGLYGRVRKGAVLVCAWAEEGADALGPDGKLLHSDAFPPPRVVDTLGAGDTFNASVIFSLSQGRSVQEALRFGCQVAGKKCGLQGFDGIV
Where a name gives a salt, the structure may show the parent alone.
measurement type: pIC50
The scale used: pIC50 is minus the common logarithm of the concentration in molar units.

QUERY: Find the measured pIC50 of Cc1nn(-c2ccccc2)c2cc(N3CCC(N4CCNCC4)CC3)ccc12 [Compound 57, hydrochloride] and report it.
RESULT: 5.49

The measured values listed here are drawn from patent US9771375B2.
